Tested on: S. aureus MSSA476
Construct: MSSA476
Parameters: species or system S. aureus MSSA476 (TSB) or V. cholerae SAD30 (LB); 384-well bacterial growth screen at 25 uM, OD600 relative to DMSO control
Test context: relative growth, OD600, TSB; 25 µM; inhibitor
About 75 (2%) of roughly 3,200 compounds showed an effect of 50% or more. For the sample, strong results were picked, then their nearest neighbours and some compounds at random.
Experimental readout: % of control remaining (%)
Report only the number, with the unit % understood.

Answered cases to consult:
> print(dat)
                                   compound    experimental.readout  value.unit  recorded.result
1  CC(Cl)C(=O)N1CCCN(C(=O)c2cc(Cl)cn2C)CC1 (centres unmarked)  % of control remaining           %          91.6797
2  CCN(CC(=O)NC1CCS(=O)(=O)C1)C(=O)CCl (centres unmarked)  % of control remaining           %           127.68
3  C=CC(=O)NC(C)c1cnc(C(F)(F)F)s1 (centres unmarked)  % of control remaining           %           119.06
4           Cc1ccc(C=C(C#N)C(=O)Nc2nccs2)s1  % of control remaining           %            93.61
5               O=C1C=CC(=O)N1CCc1ccc(F)cc1  % of control remaining           %          70.9375

For the compound COc1cc(Cl)c(C)cc1N1C(=O)C=CC1=O , what % of control remaining is on record?
91.875

For the compound Cc1cc(-n2c(C)cc(C(=O)CCl)c2C)no1 , what % of control remaining is on record?
123.125

For the compound C=CC(=O)N1CCOCC2(COCCN2C)C1 (centres unmarked) , what % of control remaining is on record?
109.012

For the compound C=CC(=O)N1CCCN(C(=O)c2ccc(OC)cc2)CC1 , what % of control remaining is on record?
128.864

###

System: S. aureus MSSA476
Construct: MSSA476
Set-up: species or system S. aureus MSSA476 (TSB) or V. cholerae SAD30 (LB); 384-well bacterial growth screen at 25 uM, OD600 relative to DMSO control
Test context: relative growth, OD600, TSB; 25 µM; inhibitor
Out of some 3,200 compounds screened, about 75 (2%) showed an effect of 50% or more. This excerpt belongs to a sample that is enriched for strong results.
Experimental readout: % of control remaining (%)
Report only the number, with the unit % understood.

> print(dat)
                                   compound             target  value.unit  recorded.result
1  COc1ccc(C2=NN(C(=O)CCl)C(c3ccc(F)cc3)C2)cc1 (stereo not drawn)  S. aureus MSSA476           %          115.102
2  O=C(CCl)N1N=C(c2cccs2)CC1c1ccccc1O (stereo not drawn)  S. aureus MSSA476           %            3.049
3  O=C(CCl)N1N=C(c2cccs2)CC1c1cccc(O)c1 (stereo not drawn)  S. aureus MSSA476           %           3.7561
4  COc1ccc(C2=NN(C(=O)CCl)C(c3cccc(F)c3)C2)cc1 (stereo not drawn)  S. aureus MSSA476           %          145.463
5                 COCCn1c(C)cc(C(=O)CCl)c1C  S. aureus MSSA476           %          103.125

For the compound Cc1cc(C(=O)CCl)c(C)n1Cc1ccccc1Cl , what % of control remaining is on record?
127.813

For the compound Cc1cc(C(=O)CCl)c(C)n1Cc1ccccc1 , what % of control remaining is on record?
143.438

For the compound O=C(CCl)N1N=C(c2cccs2)CC1c1ccc(F)cc1 (stereo not drawn) , what % of control remaining is on record?
137.589

For the compound Cc1cc(C(=O)CCl)c(C)n1CCc1ccccc1 , what % of control remaining is on record?
102.188

For the compound C=CC(=O)N(C)CC(=O)N1CCC2(CC1)CC2c1nnc(C(C)C)o1 (stereo not drawn) , what % of control remaining is on record?
98.8686

For the compound O=C(CCl)N1N=C(c2cccs2)CC1c1cccs1 (stereo not drawn) , what % of control remaining is on record?
105.193

For the compound Cn1cccc1C(=O)CCl , what % of control remaining is on record?
122.188

For the compound Cc1cc(C(=O)CCl)c(C)n1CCc1cccs1 , what % of control remaining is on record?
20.3125

For the compound O=C(CCl)Nc1ccc(Oc2ccccc2)cc1 [4-J09, 2-chloro-N-(4-phenoxyphenyl)acetamide] , what % of control remaining is on record?
73.5588

For the compound Cc1ccc(C2CC(c3cccs3)=NN2C(=O)CCl)cc1 (stereo not drawn) , what % of control remaining is on record?
118.533

###

Test system: S. aureus MSSA476
Construct: MSSA476
Design: species or system S. aureus MSSA476 (TSB) or V. cholerae SAD30 (LB); 384-well bacterial growth screen at 25 uM, OD600 relative to DMSO control
Test context: relative growth, OD600, TSB; 25 µM; inhibitor
The whole screen tested about 3,200 compounds, of which about 75 (2%) showed an effect of 50% or more. This is one part of a sample in which strong results are shown more often than they occur.
Checkbox rule: % of control remaining lower than 80% = rule met; % of control remaining not lower than 80% = rule not met.

Here are 5 molecules together with their reported answers.
> print(dat)
                                 molecule  assigned.class
1     Cc1c(C#N)c(NC(=O)CCl)n(Cc2ccco2)c1C    rule not met
2      CCS(=O)(=O)N1CCc2cc(C(=O)CCl)ccc21        rule met
3  N#CC(=Cc1cccc(Cl)c1Cl)C(=O)NCCc1ccccc1        rule met
4       Cc1cc(C(=O)CCl)c(C)n1Cc1ccc(F)cc1        rule met
5           Cc1cccc(-n2cc(C(=O)CCl)nn2)c1        rule met

Quick check: does N#CC(=Cc1ccc(Cl)cc1)C(=O)Nc1ccncc1 have % of control remaining under 80%?
rule not met

Quick check: does O=C(CCl)c1cn(-c2cccc(C(F)(F)F)c2)nn1 have % of control remaining under 80%?
rule met

Quick check: does Cn1cc(C(=O)CCl)nn1 have % of control remaining under 80%?
rule not met

Quick check: does CC(=O)N1c2ccc(C(=O)CCl)cc2CC1C (centres unmarked) have % of control remaining under 80%?
rule met

Quick check: does C=CC(=O)NCCc1nnc(C)s1 have % of control remaining under 80%?
rule not met

Quick check: does COc1cc(NC(=O)CCl)cc(OC)c1 have % of control remaining under 80%?
rule not met

Quick check: does CC(C)CC(=O)Nc1ccc(C(=O)CCl)cc1 have % of control remaining under 80%?
rule met

Quick check: does C=CC(=O)N1CCc2c(nnn2CCOC)C1 have % of control remaining under 80%?
rule not met

Quick check: does CC(Cl)C(=O)Nc1ccc(Cl)cc1Cl (centres unmarked) have % of control remaining under 80%?
rule not met

Quick check: does CN1C=CC(=C(C#N)C(=O)CCl)C=C1 have % of control remaining under 80%?
rule not met

Quick check: does O=C(CCl)c1ccccn1 have % of control remaining under 80%?
rule met

Quick check: does O=C(CCl)c1cn(-c2ccc(F)cc2)nn1 have % of control remaining under 80%?
rule met

Quick check: does CCCC(=O)Nc1ccc(C(=O)C(C)Cl)cc1 (centres unmarked) have % of control remaining under 80%?
rule not met

###

The reader will find reported % of control remaining values listed item by item below.
Tested on: S. aureus MSSA476
Construct: MSSA476
Parameters: species or system S. aureus MSSA476 (TSB) or V. cholerae SAD30 (LB); 384-well bacterial growth screen at 25 uM, OD600 relative to DMSO control
Test context: relative growth, OD600, TSB; 25 µM; inhibitor
Screen size: about 3,200 compounds; about 75 (2%) showed an effect of 50% or more. The list comes from a sample in which strong results are over-represented; it also holds close analogues and randomly drawn compounds.
Report only the number, with the unit % understood.

> print(dat)
                           molecule  value.unit  recorded.result
1  O=C(O)c1coc(C(=O)CCl)c1 [10-B07]           %          79.6875

For the molecule CCc1cc(SC#N)cc(C)c1NC(=O)CCl [4-M04] , what % of control remaining is on record?
101.382

For the molecule CC(O)=C(C#N)C(=O)Nc1ccc(C(F)(F)F)cc1 [9-A05] , what % of control remaining is on record?
71.6105

For the molecule N#CC(C(=O)CCl)=C1NC(=O)c2ccccc2N1 [10-P14] , what % of control remaining is on record?
93.75

For the molecule Cc1cc(C(=O)CCl)c(C)n1-c1ccc(S(N)(=O)=O)cc1 [10-N14] , what % of control remaining is on record?
121.875

For the molecule C=CC(=O)N1CCCC1c1nc(N(C)C)no1 (stereo not shown) [2-C21] , what % of control remaining is on record?
104.439

For the molecule O=C(CCl)NC(Cc1ccccc1)c1ccccc1F (stereo not shown) [7-N10] , what % of control remaining is on record?
83.5165

For the molecule N#CCCSc1ccccc1NC(=O)CCl [6-N12] , what % of control remaining is on record?
88.439

For the molecule N#CC(C(=O)CCl)=C1Nc2cc(Cl)ccc2S1 [10-O08] , what % of control remaining is on record?
100

For the molecule COc1ccc(-c2csc(NC(=O)CCl)n2)cc1 [4-N06] , what % of control remaining is on record?
111.291

For the molecule C=CC(=O)NCc1ccc(C(=O)N2CCC[C@@H]2C(N)=O)cc1 [3-L22] , what % of control remaining is on record?
98.2151

For the molecule O=C(CCl)Cc1cccc(Cl)c1 [10-E17, 1-chloro-3-(3-chlorophenyl)propan-2-one] , what % of control remaining is on record?
119.375

For the molecule C=CC(=O)NC1CCCN(C(=O)CCC(F)(F)F)C1 (stereo not shown) [1-B03] , what % of control remaining is on record?
102.681

For the molecule Cc1ccc(C=C(C#N)C(=O)NCc2ccco2)o1 [8-P19] , what % of control remaining is on record?
89.6266

For the molecule CC(Cl)C(=O)C=C1N(C)c2ccccc2C1(C)C (stereo not shown) [10-J22] , what % of control remaining is on record?
134.063

For the molecule O=C(CCl)Nc1c(Cl)cccc1C(F)(F)F [5-B04] , what % of control remaining is on record?
82.3315

For the molecule CCn1cc(S(=O)(=O)N2CCSSCC2)cn1 [10-N19] , what % of control remaining is on record?
97.1875

Data provenance is paper PMC11995724.
